glycan array binding signal (z-score) values by entry
target: Gal(b1-4)GlcNAc(b1-3)Gal(b1-4)GlcNAc(b1-3)Gal(b1-4)GlcNAc(b1-3)Gal(b1-4)GlcNAc(b1-3)Gal(b1-4)GlcNAc(b1-2)Man(a1-3)[Gal(b1-4)GlcNAc(b1-3)Gal(b1-4)GlcNAc(b1-3)Gal(b1-4)GlcNAc(b1-3)Gal(b1-4)GlcNAc(b1-3)Gal(b1-4)GlcNAc(b1-2)Man(a1-6)]Man(b1-4)GlcNAc(b1-4)GlcNAc; assay: glycan array binding signal (z-score within array); higher = stronger binding; conditions: glycan notation: IUPAC condensed, linker removed
Many of the other results were omitted from the sample, so the strongest signals are more common in it than they were.
// print number alone

Need glycan array binding signal (z-score) of SP15308C-bot-338-23-338 (Bacteroides ovatus) (protein) DEWTDEQFKQLISFKTQPGGWGVTDVHVRYANSAKYTYNLPVLVSGSTDNTDDRLVSFSLRDDTLDILNFEKFGNRPELYFRELPQKYYSFPKELTIPAGQSHALLPIEFSLDGLDDSQKWALPLKVCEDANGTYAVNPRKYYRTAVLRPILFNEFSGRFSGSSLLGTMAGESDIKFSSTEIKLNVVTDSIVFFYAGQRTEDYEDRINYKVFLQFTGDKVDSKKDLYKMKIWAENEKLKFNSYSTPTYKVSSEMDATKTYLKHTYIVISDIDFDFVDYTSVPNYEIEYNMKGGLSVSRDLDTRKPDEDQGSDSKWW , thanks.
2.06

Then Gal 7 (Homo sapiens) (protein) MSNVPHKSSLPEGIRPGTVLRIRGLVPPNASRFHVNLLCGEEGGSDAALHFNPRLDTSEVVFNSKEGGSWGREERGPGVPFGRGQPFEVLIIASDDGFKAVVGDAQYHHFRHRLPLARVRLVEVGGDVQLDSVRIF ?
4.95

Turning to the following binder.
Need glycan array binding signal (z-score) of DrGal9 (Danio rerio) (protein) MAFYQQPPYYNPRIPFSGPIQGGLQDGKSIIISGRVLPGANRFHVNLQCGSHSEANVALHFNPRYEDTDYVVNNSYLNRTWGSEERKYESPFAQGQTFTLQILVAQDKYKISTNGRHFMDYKHRIPFTQVDTVAVEGMVEVNSVAFQNPAGFIPPQAGYAPQYAVPPGCGFPAFPSAPNYTIPHKTVMNGGLHPGKNIVINGVVNPNAKSIIFNLCYRSGIAFHYNPRFDENVVVRNTNQMEKWGAEERFGGLPFHKGQPFQVTISCNPQHYNVFVNGKQEHTYKHRYTKLNDIDILEICGDLQLTSVQA , thanks.
3.05
